# Assay comment: qHTS assay to identify small molecule agonists of the retinoic acid receptor (RAR) signaling pathway (AID 1159553)
# Condition context: C3RL4 RARE luciferase reporter, agonist, 6 h; series mostly up to 73.3 µM
Records with an inconclusive call do not appear. Calls of active or inactive are those of the source. Calls come from the whole dose curve; as a rule, active = well fitted activation curve with a large enough effect in the repeat runs; inconclusive = weak or mixed curves, or effect the other way; inactive = no such curve, though single readings can be large or run the other way.
Field 'call' accepts true (1) (active), false (0) (inactive)

> print(dat)
                  compound.structure.string  label.value
1                      Cc1cccc(C(C)(C)C)c1O    false (0)
2  NC(N)=NN=C(/C=C/c1ccc([N+](=O)[O-])o1)/C=C/c1ccc([N+](=O)[O-])o1     true (1)
3  FC(F)(F)C(F)(F)C(F)(F)C(F)(F)C(F)(F)C(F)(F)CCI    false (0)
4               O=C(c1ccc(O)cc1)c1ccc(O)cc1    false (0)
5           CN1CCC(OC(c2ccccc2)c2ccccc2)CC1    false (0)

Hello, I am checking results. What call was entered for `N#Cc1cc2ccccc2c2ccccc12` ?
false (0)

###

# Assay comment: qHTS assay to identify small molecule antagonists of the progesterone receptor (PR) signaling pathway - cell viability counter screen (AID 1346798); note: nearly all actives have a fitted effect of over 50% in size
# Condition context: PR-UAS-bla HEK293T viability, CellTiter-Glo luminescence, 16 h; series mostly up to 92.4 µM
Inconclusive results are not listed. Activity calls are given as the source filed them. Calls come from the whole dose curve; as a rule, active = well fitted cell-killing curve with a large enough effect in the repeat runs; inconclusive = weak or mixed curves, or effect the other way; inactive = no such curve, though single readings can be large or run the other way.
Give your call using only these classes: active, inactive

Each molecule tested received a call. Report the one for CCCCCCCCC(CO)CCCCCC (stereo unspecified) .
inactive

Test call for this molecule, please: `NC(N)=NN=C(/C=C/c1ccc([N+](=O)[O-])o1)/C=C/c1ccc([N+](=O)[O-])o1`
active

How was `CC(=O)Nc1ccc(/C=N/NC(N)=S)cc1` classified in this test?
inactive

Returns: the outcome recorded for `O=C(Cl)c1c(Cl)cccc1Cl` in this assay.
inactive

Hey, what did the test say about `Cc1c(Cn2ccnc2)c2ccccc2n1CCC(=O)O` ?
inactive

Give the logged outcome of this assay for the following molecule: CCCCOC(=O)c1ccccc1C(=O)OCC(CC)CCCC (stereo unspecified)
inactive

###

# Assay comment: Caspase-3/7 induction in CHO-K1 cells by small molecules, qHTS cell viability counter screen (AID 1346979); note: nearly all actives have a fitted effect of over 35% in size
# Condition context: CellTiter-Fluor fluorescence, 17 h; series mostly up to 92.4 µM
Inconclusive results are not listed. Activity calls are given as the source filed them. Calls come from the whole dose curve; as a rule, active = well fitted cell-killing curve with a large enough effect in the repeat runs; inconclusive = weak or mixed curves, or effect the other way; inactive = no such curve, though single readings can be large or run the other way.
Outcome measure: outcome

Example cases with answers are listed next.
> print(dat)
                                   molecule  outcome.measure    result
1  CCC(=O)OC(C)(C)C1CC=C(C)CC1 (stereo unspecified)          outcome  inactive
2                            C1=Cc2ccccc2C1          outcome  inactive
3                                NCc1ccccc1          outcome  inactive
4          CCN(CC)CCOC(=O)C1(c2ccccc2)CCCC1          outcome  inactive
5  O=C=NC1CCC(CC2CCC(N=C=O)CC2)CC1 (stereo unspecified)          outcome  inactive

Specify measured outcome for `CNS(=O)(=O)Cc1ccc2[nH]cc(CCN(C)C)c2c1` .
inactive

Please report the measured outcome for `Cc1occc1S`
inactive

Respond only with outcome recorded for `CC(C)(C)c1ccc(S)cc1`
inactive

# return recorded outcome for entry `O=C(c1ccc(O)cc1)c1ccc(O)cc1`
inactive

Tell me measured outcome for `CC[C@H](C)[C@H](N)C(=O)O` please.
inactive

Please list outcome recorded for the molecule CCN(CC)C(C)CN1c2ccccc2Sc2ccccc21 (stereo unspecified)
inactive

Each recorded value in this set is attributed to PubChem BioAssay (Tox21).
